- subject of test: T1, human IL-36R extracellular domain expressed with a C-terminal myc-myc-hexahistidine tag (hIL-36R-MMH) (human, UniProt Q9HB29 20-337)
- T1 construct: also called Human IL-36R-MMH; REGN2105
- test: SPR Biacore T200, mAb captured on anti-hFc, 37C, PBS-T pH 7.4 running buffer
Reported koff values are given for each entry in this list.
property label: koff

[[record]]
binder = "H4H14757P (antibody, human IgG4 S228P, kappa, V domains shown, Fully human anti-IL-36R antibody) VH: EVQLVESGGGLVQPGRSLRLSCTASGFTFDDYAMHWVRQAPGKGLEWVSGIRWNGGSIGYVDSVKGRFTISRDNAKKSLHLQMNSLKTEDTALYYCAKDIGDILTGFYGEYGMDVWGQGTTVTVSS VL: DIQMTQSPSSLSASEGDRVTITCRASQSISSYLNWYQQKAGKAPNLLIYAASSLQSGVPSRFSGSGSGTEYTLTISSLQPEDFATYYCQQSYIIPYTFGQGTKLEIKR"
property_label = "koff"
assay_result = "0.00129 s⁻¹"

[[record]]
binder = "H4H14731P (antibody, human IgG4 S228P, kappa, V domains shown, Fully human anti-IL-36R antibody) VH: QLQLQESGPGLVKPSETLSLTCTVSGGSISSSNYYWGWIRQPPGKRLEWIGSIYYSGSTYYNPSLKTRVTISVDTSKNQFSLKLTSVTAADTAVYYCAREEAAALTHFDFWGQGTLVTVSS VL: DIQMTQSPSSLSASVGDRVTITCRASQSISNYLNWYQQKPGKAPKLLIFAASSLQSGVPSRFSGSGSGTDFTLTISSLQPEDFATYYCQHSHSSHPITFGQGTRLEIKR"
property_label = "koff"
assay_result = "0.00108 s⁻¹"

[[record]]
binder = "H4H14709P (antibody, human IgG4 S228P, kappa, V domains shown, Fully human anti-IL-36R antibody) VH: EVQLVESGGGLVQPGGSLRLSCAASGFTFSDYAMSWVRQAPGKGLEWVSGISGNGGDTYYGDFVKGRFTISRDNSKNTLYLQMNSLRGEDTAAYFCVIDLDYWGQGTLVTVSS VL: DIQMTQSPSTLSASEGDRVTITCRASQSISSWLAWYQQKPGKAPRLLIYKASILGDGVPSRFSGSGSGTEFTLTISSLQPDDFATYYCHQYNSYLWTFGQGTKVEIKR"
property_label = "koff"
assay_result = "0.000704 s⁻¹"

